src = patent US9051562B2

Test system: Brevibacterium aurantiacum (ATCC 9175; formerly B. linens) methionine gamma-lyase MGL-BL929, recombinant, SEQ ID NO: 1 (Brevibacterium aurantiacum)
Assay context: 100 mM K*PO4, 0.01 mM PLP, pH 7.5, 25° C., 10 min
Would you kindly list Vmax for each of these compounds?
Just the number please, in μmol · min^−1 · m^−1, no unit attached.

Given item "CSCC[C@H](N)C(=O)O" , the value recorded as its Vmax is 5.77

"N[C@@H](CCSC[C@H](N)C(=O)O)C(=O)O" yielded Vmax of 0

Please fill in: Vmax reported for "Nc1ncnc2c1ncn2[C@@H]1O[C@H](CSCC[C@H](N)C(=O)O)[C@@H](O)[C@H]1O" = 0

GET /value?item= "CSCC[C@@H](N)C(=O)O" &field=Vmax returns 0

The reported value for "N[C@@H](CS)C(=O)O" in terms of Vmax is 0

Entry "N[C@@H](CCS)C(=O)O" , Vmax reported as 27.7
